- target_of_assay: human IL-13 (source not stated for the assay) (human, UniProt P35225 35-146, limits assumed)
- Sequence (P35225 35-146 limits assumed): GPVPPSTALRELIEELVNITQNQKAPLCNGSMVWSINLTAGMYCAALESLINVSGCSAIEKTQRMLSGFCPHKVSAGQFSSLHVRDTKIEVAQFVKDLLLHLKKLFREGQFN
- procedure_details: cell-based or functional assay
reported_metric: IC50, IL-13 induced eotaxin release, n = 2 (nM)

1) mAb 183 (antibody, V domains shown) VH: EVQLVESGGGLVKPGGSLRLSCAASGFTFSSYSMNWVRQAPGKGLEWVSYISSSYNYIYYGDSVKGRFTISRDNAKNSLYLQMNSLRAEDTAVYYCARDQVGATLDAFDIWGQGTMVTVSS VL: DIQMTQSPSSLSASVGDRVTITCRASQGIGDDLGWYQQKPGKAPKRLIYAASSLQSGVPSRFSGSGSGTEFTLTISSLQPEDFATYYCLQHNSYPFTFGPGTKVDIK	1.84
2) mAb 356 (antibody, V domains shown) VH: EVQLVESGGGLVKPGGSLRLSCAASGFTFSDYNMHWVRQAPGKGLEWVSSISYSSTYIYYADSVRGRFTISRDNAKNSLYLQMNSLRAEDTAVFYCAREDYYYYGLDVWGQGTTVTVSS VL: DIQMTQSPSSLSASVGDRVTITCRASQDIRNDLGWYQQKPGKAPKRLIYDASSLQSGVPSRFSGSGSGTEFTLTISSLQPEDFAIYYCLQHNSYPWTFGQGTKVEIK	0.913
